Catalogue of Half-Life, Max values
Test: Phase 1 first-in-human study, pharmacokinetics in plasma
Conditions: cohort A, 20 mg PO single dose
State the value, then name its unit.

Previously resolved entries follow.
{"Compound": "COC(=O)C12CC3CC(CC(=O)O)C1N(CCc1c2[nH]c2ccccc12)C3 (stereo not shown)", "Measurement": "43.4 h"}
{"Compound": "COC(=O)C12CC3CC(CCO)C1N(C=Cc1c2[nH]c2ccccc12)C3 (stereo not shown)", "Measurement": "19.0 h"}
{"Compound": "COCCC1CC2CN3C=Cc4c([nH]c5ccccc45)C(C(=O)OC)(C2)C13 (stereo not shown)", "Measurement": "9.3 h"}

// next item, Half-Life, Max requested
Problem: Please give the documented Half-Life, Max of COCC[C@H]1CC2CN3CCc4c([nH]c5ccccc45)[C@](C(=O)OC)(C2)[C@H]13
Solution: 21.7 h

Origin of the recorded values: patent US20230201217A1
